Test system: Hepatotoxicity
What HepSE_cholecystitis was measured for each of the following?
Numbers only.

Some compounds with recorded HepSE_cholecystitis:
>>> endpointvalue("CC1CNc2c(cccc2S(=O)(=O)N[C@@H](CCCNC(=N)N)C(=O)N2CC[C@@H](C)C[C@@H]2C(=O)O)C1 (some centres not stated) [ARGATROBAN]")
0
>>> endpointvalue("CS(=O)(=O)OCCCCOS(C)(=O)=O [BUSULFAN]")
0
>>> endpointvalue("C[C@]12CCC(=O)C=C1CC[C@@H]1[C@@H]2[C@@H](O)C[C@@]2(C)[C@H]1CC[C@]2(O)C(=O)CO [HYDROCORTISONE]")
0
>>> endpointvalue("C[C@@H](c1ncncc1F)[C@](O)(Cn1cncn1)c1ccc(F)cc1F [VORICONAZOLE]")
1
>>> endpointvalue("CC[C@@H](CO)NC(=O)[C@@H]1C=C2c3cccc4c3c(cn4C)C[C@H]2N(C)C1 [METHYSERGIDE]")
0

Could you report HepSE_cholecystitis for every entry in the following list?
1. O=c1n(CCCN2CCN(c3cccc(Cl)c3)CC2)nc2ccccn12 [TRAZODONE]
2. C[C@@H](NCCCc1cccc(C(F)(F)F)c1)c1cccc2ccccc12
3. O=C1CC2(CCCC2)CC(=O)N1CCCCN1CCN(c2ncccn2)CC1 [BUSPIRONE]

Solution:
0
0
0

Could you report HepSE_cholecystitis for every entry in the following list?
1. CC1(C)S[C@@H]2[C@H](NC(=O)Cc3ccccc3)C(=O)N2[C@H]1C(=O)O [PENICILLIN G]
2. COc1ccc(-c2ccc3cc(C(=O)O)ccc3c2)cc1C12CC3CC(CC(C3)C1)C2
3. Cl.N [AMMONIUM CHLORIDE]
4. Nc1nc(/C(=C/CC(=O)O)C(=O)N[C@@H]2C(=O)N3C(C(=O)O)=CCS[C@H]23)cs1 [CEFTIBUTEN]
5. Nc1ccc(O)c(C(=O)O)c1 [MESALAMINE]
6. COc1cccc(C2(O)CCCCC2CN(C)C)c1 (configuration not stated) [TRAMADOL]
7. CC=CC1=C(C(=O)O)N2C(=O)[C@@H](NC(=O)[C@H](N)c3ccc(O)cc3)[C@H]2SC1 [CEFPROZIL]

Solution:
1. 0
2. 0
3. 0
4. 0
5. 1
6. 1
7. 0

----------
System: Hepatotoxicity
What HepSE_hepatic failure was measured for each of the following?
Numbers only.

>>> endpointvalue("NS(=O)(=O)c1cc2c(cc1C(F)(F)F)NC(Cc1ccccc1)NS2(=O)=O (centres undefined) [BENDROFLUMETHIAZIDE]")
0
>>> endpointvalue("C=CC1=C(C(=O)O)N2C(=O)[C@@H](NC(=O)/C(=N\\O)c3csc(N)n3)[C@H]2SC1")
1
>>> endpointvalue("O=C(NCC(O)CO)c1c(I)c(C(=O)NCC(O)CO)c(I)c(N(CCO)C(=O)CO)c1I (centres undefined)")
0

Exercise: Note HepSE_hepatic failure for the molecule shown: CCc1ccc(CCOc2ccc(CC3SC(=O)NC3=O)cc2)nc1 (centres undefined)
Solution: 1

----------
Tested on: Hepatotoxicity
What HepSE_hepatic failure was measured for each of the following?
Give bare numbers.

Some molecules with recorded HepSE_hepatic failure:
>>> endpointvalue("COCC1=C(C(=O)O)N2C(=O)[C@@H](NC(=O)/C(=N\\OC)c3csc(N)n3)[C@H]2SC1")
0
>>> endpointvalue("CN[C@@H]1CCc2[nH]c3ccc(C(N)=O)cc3c2C1")
0
>>> endpointvalue("CCCSc1ccc2nc(NC(=O)OC)[nH]c2c1")
1
>>> endpointvalue("CO[C@H]1C[C@@H]2CC[C@@H](C)[C@@](O)(O2)C(=O)C(=O)N2CCCC[C@H]2C(=O)O[C@H]([C@H](C)C[C@@H]2CC[C@@H](O)[C@H](OC)C2)CC(=O)[C@H](C)/C=C(\\C)[C@@H](O)[C@@H](OC)C(=O)[C@H](C)C[C@H](C)/C=C/C=C/C=C/1C")
0
>>> endpointvalue("CC(COc1ccccc1)N(CCCl)Cc1ccccc1 (stereo unspecified)")
0
>>> endpointvalue("[Li]")
0

Could you report HepSE_hepatic failure for every entry in the following list?
1. CC(C)CN(C[C@@H](O)[C@H](Cc1ccccc1)NC(=O)O[C@H]1CCOC1)S(=O)(=O)c1ccc(N)cc1
2. NCCCC[C@H](N[C@@H](CCc1ccccc1)C(=O)O)C(=O)N1CCC[C@H]1C(=O)O [LISINOPRIL ANHYDROUS]
3. C[C@]12CC[C@@H]3c4ccc(O)cc4C[C@@H](CCCCCCCCC[S+]([O-])CCCC(F)(F)C(F)(F)F)[C@H]3[C@@H]1CC[C@@H]2O (stereo partly specified)
4. CCCCC(=O)N(Cc1ccc(-c2ccccc2-c2nnn[nH]2)cc1)[C@H](C(=O)O)C(C)C
5. CN1CCC(=C2c3ccccc3C=Cc3ccccc32)CC1

Solution:
0
1
0
0
1

----------
HepSE_cholelithiasis data for Hepatotoxicity follow.
Numbers only.

Some molecules with recorded HepSE_cholelithiasis:
>>> endpointvalue("C[C@@H](O)C(=O)O [D-LACTIC ACID]")
0
>>> endpointvalue("O=P(O)(O)C(Sc1ccc(Cl)cc1)P(=O)(O)O [TILUDRONIC ACID]")
0
>>> endpointvalue("CCN1CC(CCN2CCOCC2)C(c2ccccc2)(c2ccccc2)C1=O (configuration not stated) [DOXAPRAM]")
0
>>> endpointvalue("CC(C)(C)NCC(O)COc1cccc2c1CC(O)C(O)C2 (configuration not stated) [NADOLOL]")
0
>>> endpointvalue("OCCOCCN1CCN(C(c2ccccc2)c2ccc(Cl)cc2)CC1 (configuration not stated) [HYDROXYZINE]")
0
>>> endpointvalue("CCc1nc(N)nc(N)c1-c1ccc(Cl)cc1 [PYRIMETHAMINE]")
0
>>> endpointvalue("NCCS [CYSTEAMINE]")
0
>>> endpointvalue("Cc1cn([C@H]2C[C@H](N=[N+]=[N-])[C@@H](CO)O2)c(=O)[nH]c1=O [ZIDOVUDINE]")
0

Could you report HepSE_cholelithiasis for every entry in the following list?
1. O=c1[nH]c2ccccc2n1C1CCN(CCCC(c2ccc(F)cc2)c2ccc(F)cc2)CC1 [PIMOZIDE]
2. CCCCc1nc(Cl)c(CO)n1Cc1ccc(-c2ccccc2-c2nn[nH]n2)cc1 [LOSARTAN]
3. CC(C)C[C@H]1C(=O)N2CCC[C@H]2[C@]2(O)O[C@](NC(=O)[C@@H]3C=C4c5cccc6[nH]c(Br)c(c56)C[C@H]4N(C)C3)(C(C)C)C(=O)N12 [BROMOCRIPTINE]
4. CNC1(c2ccccc2Cl)CCCCC1=O (configuration not stated) [KETAMINE]
5. O=C(O[C@@H]1C[C@@H]2C[C@H]3C[C@H](C1)N2CC3=O)c1c[nH]c2ccccc12 [DOLASETRON]

Solution:
1: 0; 2: 0; 3: 0; 4: 0; 5: 0

Could you report HepSE_cholelithiasis for every entry in the following list?
1. COc1cc2nc(N(C)CCCNC(=O)C3CCCO3)nc(N)c2cc1OC (configuration not stated) [ALFUZOSIN]
2. O=P(O)(O)C(O)(Cc1cccnc1)P(=O)(O)O [RISEDRONIC ACID]
3. CC(C)OC(=O)CCC/C=C\C[C@@H]1[C@@H](/C=C/[C@@H](O)COc2cccc(C(F)(F)F)c2)[C@H](O)C[C@@H]1O [TRAVOPROST]
4. O=C1CN=C(c2ccccc2Cl)c2cc([N+](=O)[O-])ccc2N1 [CLONAZEPAM]

Solution:
1. 0
2. 0
3. 0
4. 0

Could you report HepSE_cholelithiasis for every entry in the following list?
1. C=C1CC[C@H](O)C/C1=C/C=C1\CCC[C@]2(C)[C@@H]([C@H](C)CCCC(C)C)CC[C@@H]12 [CHOLECALCIFEROL]
2. CC(=O)OCC(=O)[C@@]12OC3(CCCC3)O[C@@H]1C[C@H]1[C@@H]3CCC4=CC(=O)C=C[C@]4(C)[C@@]3(F)[C@@H](O)C[C@@]12C [AMCINONIDE]
3. C[C@@H]1C[C@H]2[C@@H]3C[C@H](F)C4=CC(=O)C=C[C@]4(C)[C@@]3(F)[C@@H](O)C[C@]2(C)[C@@]1(O)C(=O)CO [FLUMETHASONE]
4. C[C@]12CC[C@@H]3c4ccc(O)cc4CC[C@H]3[C@@H]1CC[C@@H]2O [ESTRADIOL]
5. CO/N=C(\C(=O)N[C@@H]1C(=O)N2C(C(=O)OCOC(=O)C(C)(C)C)=C(/C=C\c3scnc3C)CS[C@H]12)c1csc(N)n1 [CEFDITOREN PIVOXIL]
6. Nc1ccn([C@@H]2O[C@H](CO)[C@@H](O)C2(F)F)c(=O)n1 [GEMCITABINE]
7. C[C@H](/C=C/[C@H](C)C(C)(C)O)[C@H]1CC[C@H]2/C(=C/C=C3C[C@@H](O)C[C@H](O)C3)CCC[C@]12C [PARICALCITOL]
8. O=C1C(CC[S+]([O-])c2ccccc2)C(=O)N(c2ccccc2)N1c1ccccc1 (configuration not stated) [SULFINPYRAZONE]

Solution:
1: 0; 2: 0; 3: 0; 4: 0; 5: 0; 6: 0; 7: 0; 8: 0

Could you report HepSE_cholelithiasis for every entry in the following list?
1. COc1ccccc1OCC(O)COC(N)=O (configuration not stated) [METHOCARBAMOL]
2. CCCCCCCCCCC[C@@H](C[C@@H]1OC(=O)[C@H]1CCCCCC)OC(=O)[C@H](CC(C)C)NC=O [ORLISTAT]
3. CC(C)Cn1cnc2c(N)nc3ccccc3c21 [IMIQUIMOD]
4. CCCCCOC(=O)Nc1nc(=O)n([C@@H]2O[C@H](C)[C@@H](O)[C@H]2O)cc1F [CAPECITABINE]
5. C[C@H]1c2cccc(O)c2C(=O)C2=C(O)[C@]3(O)C(=O)C(C(N)=O)=C(O)[C@@H](N(C)C)[C@@H]3[C@@H](O)[C@@H]21.O [DOXYCYCLINE]
6. CCCCC[C@H](O)/C=C/[C@@H]1[C@H]2C/C(=C/CCCC(=O)O)O[C@H]2C[C@H]1O [EPOPROSTENOL]

Solution:
1. 0
2. 0
3. 0
4. 0
5. 0
6. 0

Exercise: Note HepSE_cholelithiasis for the molecule shown: CCCCN(CCCC)CCC(O)c1cc2c(Cl)cc(Cl)cc2c2cc(C(F)(F)F)ccc12 (configuration not stated) [HALOFANTRINE]
Solution: 0
